testedTarget: Mu-type opioid receptor (Homo sapiens)
Sequence (P35372 whole entry): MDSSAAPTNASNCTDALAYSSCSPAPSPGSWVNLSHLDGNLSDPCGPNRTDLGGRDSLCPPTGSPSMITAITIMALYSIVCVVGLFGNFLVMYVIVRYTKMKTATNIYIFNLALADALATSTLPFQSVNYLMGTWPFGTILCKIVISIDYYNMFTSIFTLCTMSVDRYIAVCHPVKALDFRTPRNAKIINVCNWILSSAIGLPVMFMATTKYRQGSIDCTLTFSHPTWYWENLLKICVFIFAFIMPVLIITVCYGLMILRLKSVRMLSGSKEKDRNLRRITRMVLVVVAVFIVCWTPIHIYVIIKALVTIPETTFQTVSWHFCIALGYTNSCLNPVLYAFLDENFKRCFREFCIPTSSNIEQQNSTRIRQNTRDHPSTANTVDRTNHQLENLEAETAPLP
measurementProtocol: Agonist activity at human recombinant mu opioid receptor expressed in CHO cells after 2 hrs by [35S]GTPgammaS binding assay
pEC50: −log10 of the molar value.
# Lookup of reported pEC50 keyed by entry
recordedMetric: pEC50

• Oc1ccc2c(c1)[C@]13CCN(Cc4ccco4)[C@H](C2)[C@]1(O)Cc1cc2ccccc2nc1C3 = 8.92
• Oc1ccc2c(c1)[C@]13CCN(C[C@@H]4CCCO4)[C@H](C2)[C@]1(O)Cc1cc2ccccc2nc1C3 = 7.82
• CCOCCN1CC[C@]23Cc4nc5ccccc5cc4C[C@@]2(O)[C@H]1Cc1ccc(O)cc13 = 6.69
• C[C@H](O)CN1CC[C@]23Cc4nc5ccccc5cc4C[C@@]2(O)[C@H]1Cc1ccc(O)cc13 = 7.77
• CN1CC[C@]23Cc4nc5ccccc5cc4C[C@@]2(O)[C@H]1Cc1ccc(O)cc13 = 6.63
• OCCN1CC[C@]23Cc4nc5ccccc5cc4C[C@@]2(O)[C@H]1Cc1ccc(O)cc13 = 6.80
• Oc1ccc2c(c1)[C@]13CCN(CCF)[C@H](C2)[C@]1(O)Cc1cc2ccccc2nc1C3 = 6.94
• CCN1CC[C@]23Cc4nc5ccccc5cc4C[C@@]2(O)[C@H]1Cc1ccc(O)cc13 = 6.97
